# Test Target: T1, human MCAM, full length, expressed on transfected cells (human, UniProt P43121 24-646)
# T1 construct: CHO cells transfected with the full length human MCAM gene; also called hMCAM; CD146
# T1 chain: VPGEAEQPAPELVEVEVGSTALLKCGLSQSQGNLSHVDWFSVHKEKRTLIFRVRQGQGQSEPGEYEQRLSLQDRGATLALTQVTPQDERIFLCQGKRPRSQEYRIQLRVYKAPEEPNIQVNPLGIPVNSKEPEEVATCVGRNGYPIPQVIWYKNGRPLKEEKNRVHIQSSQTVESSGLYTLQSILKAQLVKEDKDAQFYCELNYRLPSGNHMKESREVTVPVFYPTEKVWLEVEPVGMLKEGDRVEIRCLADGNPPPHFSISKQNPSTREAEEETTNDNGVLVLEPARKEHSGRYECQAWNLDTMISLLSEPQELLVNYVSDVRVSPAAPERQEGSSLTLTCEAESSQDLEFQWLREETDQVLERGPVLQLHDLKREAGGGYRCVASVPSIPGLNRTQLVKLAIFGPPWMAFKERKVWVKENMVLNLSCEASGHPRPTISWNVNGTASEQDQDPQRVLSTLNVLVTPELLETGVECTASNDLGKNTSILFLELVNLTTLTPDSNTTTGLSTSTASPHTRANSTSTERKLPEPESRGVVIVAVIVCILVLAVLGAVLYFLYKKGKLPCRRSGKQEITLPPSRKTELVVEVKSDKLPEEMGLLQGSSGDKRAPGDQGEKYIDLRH
# Experiment Notes: laminin/FACS assay: blocking of laminin 411 binding to hMCAM expressing CHO cells; relative to rodent 2120
Measure Name: Fold over rodent (Blocking, Expt#1) (fold)
Lab book: enter the figure in fold, no units written.

>>> obs_value("h2120_VH1 + h2120_VL2 (antibody, human IgG1, V domains shown, also called Standard VH + aggressive VL) VH: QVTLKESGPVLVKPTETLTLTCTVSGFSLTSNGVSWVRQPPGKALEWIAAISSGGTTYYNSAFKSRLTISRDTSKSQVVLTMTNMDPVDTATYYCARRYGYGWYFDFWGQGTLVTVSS VL: DIQMTQSPSSLSASVGDRVTITCKASQNIYNSLAWYQQKPGKAPKVLIFNANSLQTGVPSRFSGSGSGTDFTLTISSLQPEDFATYYCQQFYSGYTFGQGTKLEIK")
4.6

Asked: Item h2120_VH1 + h2120_VL1 (antibody, human IgG1, V domains shown, also called Standard VH + standard VL) VH: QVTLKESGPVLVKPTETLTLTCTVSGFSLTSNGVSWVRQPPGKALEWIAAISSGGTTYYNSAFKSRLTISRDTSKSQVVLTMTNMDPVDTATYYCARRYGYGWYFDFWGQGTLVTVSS VL: DIQMTQSPSSLSASVGDRVTITCKASQNIYNSLAWYQQKPGKAPKVLIFNANSLQTGIPSRFSGSGSGTDFTLTISSLQPEDFATYYCQQFYSGYTFGQGTKLEIK has what recorded Fold over rodent (Blocking, Expt#1)?
Given back: 2

Asked: Now consider h2120_VH1 + h2120_VL3 (antibody, V domains shown, Humanized V regions cloned into expression vectors containing human CK (VL) or human IgG1 (VH); expressed in 293F cells; also called Standard VH + conservative VL; VH1VL3) VH: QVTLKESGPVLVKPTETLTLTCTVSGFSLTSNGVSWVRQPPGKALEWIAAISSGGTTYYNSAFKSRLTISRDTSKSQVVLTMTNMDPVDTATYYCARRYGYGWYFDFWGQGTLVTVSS VL: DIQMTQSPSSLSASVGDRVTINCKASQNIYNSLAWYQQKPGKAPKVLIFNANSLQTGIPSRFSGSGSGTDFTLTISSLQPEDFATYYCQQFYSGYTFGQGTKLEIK and answer again.
Given back: 1.7

Asked: Now consider h2120_VH5 + h2120_VL3 (antibody, V domains shown, also called h2120VH5VL3; VH5VL3) VH: QVTLKESGPVLVKPTETLTLTCTVSGFSLTSNAVSWVRQPPGKALEWIAAISSGGTTYYNSAFKSRLTISRDTSKSQVVLTMTNMDPVDTATYYCARRYGYGWYFDFWGQGTLVTVSS VL: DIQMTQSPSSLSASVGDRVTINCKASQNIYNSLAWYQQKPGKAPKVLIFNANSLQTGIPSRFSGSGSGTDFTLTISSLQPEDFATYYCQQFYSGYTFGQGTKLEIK and answer again.
Given back: 1.2
